// reported IC50 per item
Test system: L6
measurement.protocol: Cytotoxicity against rat L6 cells
Type: functional, cell-based
assay.metric: IC50 (µM)

structure.as.smiles: C[C@H](NC(=O)Cn1ccc(=O)[nH]c1=O)C(=O)N[C@@H](CCC(=O)O)C(=O)O
target.under.test: L6
assay.metric: IC50
op: =
readout.number: 210
//
structure.as.smiles: O=C(Cn1ccc(=O)[nH]c1=O)NCC(=O)N[C@@H](Cc1ccc(O)cc1)C(=O)O
target.under.test: L6
assay.metric: IC50
op: >
readout.number: 230
//
structure.as.smiles: NCCCC[C@H](NC(=O)CNC(=O)Cn1ccc(=O)[nH]c1=O)C(=O)O
target.under.test: L6
assay.metric: IC50
op: >
readout.number: 253
//
structure.as.smiles: C[C@H](NC(=O)Cn1ccc(=O)[nH]c1=O)C(=O)N[C@@H](CC(=O)O)C(=O)O
target.under.test: L6
assay.metric: IC50
op: >
readout.number: 252
//
structure.as.smiles: C[C@H](NC(=O)Cn1ccc(=O)[nH]c1=O)C(=O)N[C@@H](Cc1ccc(O)cc1)C(=O)O
target.under.test: L6
assay.metric: IC50
op: =
readout.number: 214
//
structure.as.smiles: COc1cc([C@@H]2c3cc4c(cc3[C@H](O)[C@H]3COC(=O)[C@H]23)OCO4)cc(OC)c1OC
target.under.test: L6
assay.metric: IC50
op: =
readout.number: 0.15
//
structure.as.smiles: C[C@@H](O)[C@H](NC(=O)CNC(=O)Cn1ccc(=O)[nH]c1=O)C(=O)O
target.under.test: L6
assay.metric: IC50
op: >
readout.number: 274

----------
Test system: L6
measurement.protocol: Cytotoxicity against rat L6 cells
Format: functional, cell-based
pIC50: −log10 of the molar value.

structure.as.smiles: C[C@H](NC(=O)Cn1ccc(=O)[nH]c1=O)C(=O)N[C@H](C(=O)O)[C@@H](C)O
target.under.test: L6
pIC50: < 3.58

structure.as.smiles: C[C@H](NC(=O)Cn1ccc(=O)[nH]c1=O)C(=O)N[C@@H](CCC(N)=O)C(=O)O
target.under.test: L6
pIC50: < 3.61

structure.as.smiles: C[C@H](NC(=O)Cn1ccc(=O)[nH]c1=O)C(=O)NCC(=O)O
target.under.test: L6
pIC50: < 3.52

structure.as.smiles: O=C(O)CNC(=O)Cn1ccc(=O)[nH]c1=O
target.under.test: L6
pIC50: < 3.40

structure.as.smiles: C[C@H](NC(=O)Cn1ccc(=O)[nH]c1=O)C(=O)N[C@@H](CCCCN)C(=O)O
target.under.test: L6
pIC50: < 3.61
